For each record, write down the corresponding z-score.
- test summary: JC-1 mitochondrial signal, unstimulated adipocytes – cell-based, JC-1 fluorescence, 3T3-L1 adipocytes, 24 h, 100 nL compound, profiling panel (AID 1168); note: test concentration not given here
- test context: JC-1 mitochondrial fluorescence, higher = more signal, called active from +8 up or from −8 down
Active and inactive are the calls of the source.

z-score in this record for "CO[C@H]1O[C@H](CO)[C@@H](OC(=O)Nc2ccc(C(F)(F)F)cc2)[C@H](OC(=O)Nc2ccccc2)[C@H]1OC(=O)Nc1ccccc1" : 0.575 (inactive)

z-score in this record for "COCCOC(=O)N1C(=O)[C@@]2(c3cc(C#CCC(C(=O)OC)C(=O)OC)ccc31)[C@H](C(=O)N1CCCCCCC1)[C@H]1C(=O)O[C@H](c3ccccc3)[C@H](c3ccccc3)N1[C@@H]2c1ccc(O)cc1" : 1.1 (inactive)

z-score in this record for "COCCCNC(=O)[C@]1(CCS(=O)(=O)c2ccccc2)N=C(c2ccc(OCCCO)cc2)O[C@@H]1c1ccccc1" : 0.0968 (inactive)

z-score in this record for "COCCCNC(=O)[C@@]1(C)c2ccccc2C(=O)N(c2ccc(C)cn2)[C@H]1c1ccc(CO)cc1" : 0.285 (inactive)

z-score in this record for C=CC[C@]1(C(=O)NCC(O)CO)N=C(c2ccc(OCCCO)cc2)O[C@H]1c1ccccc1N=[N+]=[N-] (stereo partly specified) : 0.13 (inactive)

z-score in this record for "COC(=O)C(CC#Cc1ccc2c(c1)[C@]1(C(=O)N2)[C@H](c2ccc(O)cc2)N2[C@H](c3ccccc3)[C@H](c3ccccc3)OC(=O)[C@H]2[C@@H]1C(N)=O)C(=O)OC" : 0.673 (inactive)

---

- test summary: probe aShh binding to arrayed compounds – biochemical, biotinylated probe, 635/667 nm fluorescence, primary screen (AID 1114);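 note: probe is biotin-labelled aShh protein from a stem cell growth factor screen; measures binding of labelled protein to compounds printed on the slide; score merges feature fluorescence at 667 nm with signal-to-noise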
- test context: small-molecule microarray, higher = more signal
recorded endpoint: composite z-score
// return a plain number; no unit text

composite z-score in this record for "O=C1O[C@@H](c2ccccc2)[C@@H](c2ccccc2)N2[C@@H](c3ccc(O)cc3)[C@]3(C(=O)Nc4ccc(C#CC5(O)CCCCCC5)cc43)[C@@H](C(=O)N3CCN(c4ncccn4)CC3)[C@H]12" : 0.255

composite z-score in this record for "C=CCNC(=O)[C@@H]1[C@H]2C(=O)O[C@H](c3ccccc3)[C@H](c3ccccc3)N2[C@H](c2ccc(O)cc2)[C@@]12C(=O)Nc1ccc(C#CCCO)cc12" : -0.484

composite z-score in this record for "Cc1ccc(S[C@]2(C(=O)O)CC(=O)N(C3CCCCC3)[C@@H]2c2ccc(CO)cc2)cc1" : 0.428

composite z-score in this record for "CCC[C@@H]1C[C@@]1(CCC)[C@@H](NC(=O)c1cccs1)c1ccc(Cl)cc1" : 0.29

composite z-score in this record for Cc1cc(C)c(C(O)C2C=CC3C(=O)N(c4ccccc4)C(=O)C3N2Nc2ccc([N+](=O)[O-])cc2)c(C)c1 (centres undefined) : 0.0328

composite z-score in this record for "CCCCC=C[C@@H](NC(=O)CCc1ccccc1)c1ccccc1" : 1.11

composite z-score in this record for "COC(=O)c1c(CC[C@@H](CO)NC(=O)N[C@@H](C)Cn2cc(C3(O)CCCC3)nn2)oc(C(C)=O)c1C(=O)OC" : -0.0709

composite z-score in this record for "O=C(O)[C@]1(CCS(=O)(=O)c2ccccc2)N=C(c2ccc(OCCCO)cc2)O[C@@H]1c1ccccc1" : -0.0322

composite z-score in this record for "COCCOC(=O)N1C(=O)[C@@]2(c3cc(C#CCC(C(=O)OC)C(=O)OC)ccc31)[C@H](c1ccc(OCCO)cc1)N1[C@H](c3ccccc3)[C@H](c3ccccc3)OC(=O)[C@H]1[C@@H]2C(N)=O" : 0.0639

composite z-score in this record for "COCCOC(=O)N1C(=O)[C@@]2(c3cc(C#CCNC(N)=O)ccc31)[C@H](C(N)=O)[C@H]1C(=O)O[C@H](c3ccccc3)[C@H](c3ccccc3)N1[C@@H]2c1ccc(OCCO)cc1" : -0.156

composite z-score in this record for "COc1cc2c(cc1OC)CN(C(=O)[C@@H]1[C@H]3C(=O)O[C@H](c4ccccc4)[C@H](c4ccccc4)N3[C@H](c3ccc(O)cc3)[C@@]13C(=O)Nc1ccc(C#CCNC(N)=O)cc13)CC2" : 0.0062

composite z-score in this record for CC(C)N1CC=CC23O[C@@H]4C=CCOC(=O)[C@@H]4[C@H]2C(=O)N(CCCCCCO)[C@@H]3C1=O (some centres undefined) : -0.116

composite z-score in this record for "COc1ccc([Si](C)(C)[C@@H]2[C@@H](CCO)O[C@]3(C(=O)N(Cc4ccc(N5C(=O)c6ccccc6Oc6ccccc65)cc4)c4ccccc43)[C@H]2C)cc1" : -0.138

composite z-score in this record for "C=CC[C@@]1(C(=O)NCCN2CCOCC2)N=C(c2ccc(OCCCO)cc2)O[C@@H]1c1ccccc1" : -0.0093
